test system: MOLT-4; assay: Growth inhibition of human MOLT4 cells at 10 uM after 48 hrs by SRB assay relative to control; type: functional; settings: MOLT-4, 48 h, read-out: GI
Please provide measured inhibition of growth at 10 µM for the entries that follow.
Quick note: unit goes after the number.

Query (compound): `COc1cccc(C(=O)Nc2cccc(-c3cc(=O)c4c(O)c(OC)c(OC)cc4o3)c2)c1` ; field requested: inhibition of growth at 10 µM 49.3%

Okay, and `COc1cc2oc(-c3cccc(C(=O)Nc4ccccc4)c3)cc(=O)c2c(O)c1OC` ? 0.26%

Okay, and `COc1cc(NC(=O)c2cccc(-c3cc(=O)c4c(O)c(OC)c(OC)cc4o3)c2)cc(OC)c1OC` ? 27.2%

Okay, and `COc1cc2oc(-c3cccc(C(=O)Nc4ccc5c(c4)OCO5)c3)cc(=O)c2c(OC)c1OC` ? 35.2%

Okay, and `COc1cc2oc(-c3cccc(C(=O)Nc4ccccc4)c3)cc(=O)c2c(OC)c1OC` ? 43.2%

Okay, and `COc1ccccc1NC(=O)c1cccc(-c2cc(=O)c3c(OC)c(OC)c(OC)cc3o2)c1` ? 38.7%

Okay, and `COc1ccc(NC(=O)c2cccc(-c3cc(=O)c4c(O)c(OC)c(OC)cc4o3)c2)cc1` ? -2.73%

Okay, and `COc1cc2oc(-c3cccc(NC(=O)c4ccc5c(c4)OCO5)c3)cc(=O)c2c(OC)c1OC` ? 97.1%

Okay, and `COc1ccc(NC(=O)c2cccc(-c3cc(=O)c4c(OC)c(OC)c(OC)cc4o3)c2)cc1` ? 36.8%
